Source: patent US11214614B2

biological target: huLTBP3 proTGFβ1 (Homo sapiens, UniProt P01137+Q9NS15); experiment: Octet (BLI) binding, IgG captured on AHC tips, antigen at 100 nM; details: Table 9; cycle 3; IgG1-agly; 1:1 fit
Sequence (P01137 30-390): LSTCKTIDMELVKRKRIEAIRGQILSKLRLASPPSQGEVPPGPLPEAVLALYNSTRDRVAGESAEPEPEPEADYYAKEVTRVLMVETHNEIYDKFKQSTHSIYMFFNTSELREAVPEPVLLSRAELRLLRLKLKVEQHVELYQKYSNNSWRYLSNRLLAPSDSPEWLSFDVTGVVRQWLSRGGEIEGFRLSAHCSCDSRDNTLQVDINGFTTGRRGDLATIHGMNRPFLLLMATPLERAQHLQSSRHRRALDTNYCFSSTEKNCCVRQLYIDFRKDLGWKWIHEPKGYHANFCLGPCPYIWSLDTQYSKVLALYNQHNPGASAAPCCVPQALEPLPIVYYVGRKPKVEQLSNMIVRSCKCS
Sequence (Q9NS15 44-1303): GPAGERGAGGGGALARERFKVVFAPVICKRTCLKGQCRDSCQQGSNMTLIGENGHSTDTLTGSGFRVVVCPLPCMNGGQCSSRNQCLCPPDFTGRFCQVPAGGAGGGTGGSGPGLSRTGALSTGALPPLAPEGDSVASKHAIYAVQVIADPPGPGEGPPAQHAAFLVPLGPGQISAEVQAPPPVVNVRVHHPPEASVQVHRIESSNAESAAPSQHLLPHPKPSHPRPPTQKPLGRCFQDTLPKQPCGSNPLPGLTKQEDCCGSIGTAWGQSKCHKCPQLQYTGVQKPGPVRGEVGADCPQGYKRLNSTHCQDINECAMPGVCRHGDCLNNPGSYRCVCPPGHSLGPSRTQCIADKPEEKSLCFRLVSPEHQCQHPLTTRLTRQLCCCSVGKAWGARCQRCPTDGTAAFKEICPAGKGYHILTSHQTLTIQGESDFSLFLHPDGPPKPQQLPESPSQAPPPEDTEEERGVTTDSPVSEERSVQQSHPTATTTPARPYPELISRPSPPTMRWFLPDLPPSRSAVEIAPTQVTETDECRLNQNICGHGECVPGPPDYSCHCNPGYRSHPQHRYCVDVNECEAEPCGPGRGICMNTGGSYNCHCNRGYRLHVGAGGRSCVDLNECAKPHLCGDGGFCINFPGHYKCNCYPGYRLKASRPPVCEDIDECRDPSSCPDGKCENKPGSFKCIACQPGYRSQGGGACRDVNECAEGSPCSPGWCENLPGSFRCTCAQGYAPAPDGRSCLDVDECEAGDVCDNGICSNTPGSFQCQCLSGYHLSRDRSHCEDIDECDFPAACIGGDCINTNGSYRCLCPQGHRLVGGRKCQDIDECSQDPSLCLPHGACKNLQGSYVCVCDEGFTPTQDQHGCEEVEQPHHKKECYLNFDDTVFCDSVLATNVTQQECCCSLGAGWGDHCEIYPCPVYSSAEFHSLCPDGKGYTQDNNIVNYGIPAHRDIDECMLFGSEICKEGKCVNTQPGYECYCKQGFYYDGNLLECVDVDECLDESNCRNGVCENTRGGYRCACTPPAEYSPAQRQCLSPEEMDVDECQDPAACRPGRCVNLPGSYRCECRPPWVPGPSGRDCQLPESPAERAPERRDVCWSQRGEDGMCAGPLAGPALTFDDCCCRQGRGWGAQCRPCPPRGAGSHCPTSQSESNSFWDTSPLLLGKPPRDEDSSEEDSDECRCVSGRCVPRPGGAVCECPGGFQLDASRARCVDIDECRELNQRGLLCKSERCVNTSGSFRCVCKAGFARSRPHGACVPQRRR
Could you please report measured Hu LTBP3-proTGFβ1 Kon for the items listed next?
Supply the numeric figure in M⁻¹ s⁻¹, leaving out any unit text.

The value of Hu LTBP3-proTGFβ1 Kon measured for the molecule SR-AB42: cycle 3 antibody, lineage SR-AB23; CDRs SEQ ID NO: 166-171; HCVR SEQ ID NO: 318, LCVR SEQ ID NO: 319 (antibody, V domains shown) VH: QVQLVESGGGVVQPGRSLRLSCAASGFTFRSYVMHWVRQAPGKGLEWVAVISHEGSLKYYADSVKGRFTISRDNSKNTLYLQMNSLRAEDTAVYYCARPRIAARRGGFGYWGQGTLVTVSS VL: NFMLTQPHSVSESPGKTVTISCTRSSGNIDNNYVQWYQQRPGSSPTTVIYEDNQRPSGVPDRFSGSIDSSSNSASLTISGLKTEDEADYYCQSYDYDTQGVVFGGGTKLTVL turned out to be 232000

Noted for SR-AB31: cycle 3 light chain-optimized antibody, lineage SR-AB22; CDRs SEQ ID NO: 124-129 (antibody, V domains shown) VH: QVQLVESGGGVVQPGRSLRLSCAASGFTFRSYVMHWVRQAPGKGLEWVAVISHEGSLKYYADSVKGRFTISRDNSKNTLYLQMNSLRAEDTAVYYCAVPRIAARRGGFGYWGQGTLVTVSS VL: NFMLTQPHSVSESPGKTVTISCTRSSGNIDNNYVQWYQQRPGSSPTTVIYEDNQRPSGVPDRFSGSIDSSSNSASLTISGLKTEDEADYYCQSYDFNNQGVVFGGGTKLTVL : its Hu LTBP3-proTGFβ1 Kon reads 308000

Form field Hu LTBP3-proTGFβ1 Kon, entry SR-AB40: cycle 3 light chain-optimized antibody, lineage SR-AB23; CDRs SEQ ID NO: 154-159 (antibody, V domains shown) VH: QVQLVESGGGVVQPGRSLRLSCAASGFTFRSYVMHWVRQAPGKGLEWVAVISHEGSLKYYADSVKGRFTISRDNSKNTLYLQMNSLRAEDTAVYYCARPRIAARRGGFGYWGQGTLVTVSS VL: NFMLTQPHSVSESPGKTVTISCTRSSGNIDNNYVQWYQQRPGSSPTTVIYEDNQRPSGVPDRFSGSIDSSSNSASLTISGLKTEDEADYYCQSYDYSNQGVVFGGGTKLTVL : 182000

Note to self: Hu LTBP3-proTGFβ1 Kon recorded for SR-AB34: cycle 3 light chain-optimized antibody, lineage SR-AB22; CDRs SEQ ID NO: 130-135 (antibody, V domains shown) VH: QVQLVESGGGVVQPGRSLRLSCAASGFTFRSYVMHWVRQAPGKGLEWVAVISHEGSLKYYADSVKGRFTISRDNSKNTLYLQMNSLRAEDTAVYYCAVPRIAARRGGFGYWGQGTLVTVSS VL: NFMLTQPHSVSESPGKTVTISCTRSSGNIDNNYVQWYQQRPGSSPTTVIYEDNQRPSGVPDRFSGSIDSSSNSASLTISGLKTEDEADYYCQSYDYDAQGVVFGGGTKLTVL was 372000

The molecule identified as SR-AB39: cycle 3 light chain-optimized antibody, lineage SR-AB22; CDRs SEQ ID NO: 148-153 (antibody, V domains shown) VH: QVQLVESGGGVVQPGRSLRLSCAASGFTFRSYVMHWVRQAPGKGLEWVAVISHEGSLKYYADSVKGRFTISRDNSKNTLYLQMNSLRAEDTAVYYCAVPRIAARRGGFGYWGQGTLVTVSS VL: NFMLTQPHSVSESPGKTVTISCTRSSGLIDDNYVQWYQQRPGSSPTTVIYEDAQRPSGVPDRFSGSIDSSSNSASLTISGLKTEDEADYYCQSYDHDEQGVVFGGGTKLTVL registered its Hu LTBP3-proTGFβ1 Kon at 441000

Consider SR-AB43: cycle 3 light chain-optimized antibody, lineage SR-AB23; CDRs SEQ ID NO: 172-177 (antibody, V domains shown) VH: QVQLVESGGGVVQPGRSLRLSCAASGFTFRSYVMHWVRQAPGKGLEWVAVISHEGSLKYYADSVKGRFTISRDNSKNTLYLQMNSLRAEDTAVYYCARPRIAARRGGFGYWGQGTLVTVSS VL: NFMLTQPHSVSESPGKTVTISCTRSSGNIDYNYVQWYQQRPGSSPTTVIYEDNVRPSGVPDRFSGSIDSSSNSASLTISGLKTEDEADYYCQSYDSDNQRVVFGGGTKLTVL . Its measured Hu LTBP3-proTGFβ1 Kon is 337000

Noted for SR-AB62: cycle 3 light chain-optimized antibody, lineage SR-AB24; CDRs SEQ ID NO: 286-291 (antibody, V domains shown) VH: QLQLQESGPGLAKPSETLSLTCTVSGGSIRSSSYYWGWIRQPPGKGLEWIGSISYSATTYYNPSLKSRVTISVDTSKNQFSLKLSSVTAADTAVYYCASDPSYDSAAGMDVWGQGTTVTVSS VL: DIQMTQSPSSLSASVGDRVTITCRASKVISSYLNWYQQKPGKAPKLLIYYASSLQSGVPSRFSGSGSGTDFTLTISSLQPEDFATYYCQQSNDWPFTFGGGTKVEIK : its Hu LTBP3-proTGFβ1 Kon reads 203000
